assay: Antileukemic activity against human AML02 cells after 24 hrs by annexin V/7-AAD staining-based flow cytometric analysis; format: functional, cell-based
Doc: threshold 2000 nM (exclusive). Items with EC50 beneath it return true (1); others return false (0).

(Q) EC50 under 2000 nM? Item: C=C1C(=O)O[C@H]2[C@H]1CC/C(COC(=O)NCCCCCCCCNC(=O)OC/C1=C/CC[C@@]3(C)O[C@H]3[C@H]3OC(=O)C(=C)[C@@H]3CC1)=C\CC[C@@]1(C)O[C@@H]21
(A) true (1)

(Q) EC50 under 2000 nM? Item: C=C1C(=O)O[C@H]2[C@H]1CC/C(COC(=O)OCCCCCOC(=O)OC/C1=C/CC[C@@]3(C)O[C@H]3[C@H]3OC(=O)C(=C)[C@@H]3CC1)=C\CC[C@@]1(C)O[C@@H]21
(A) false (0)

(Q) EC50 under 2000 nM? Item: C=C1C(=O)O[C@H]2[C@H]1CC/C(COC(=O)NCCCCCCCCCNC(=O)OC/C1=C/CC[C@@]3(C)O[C@H]3[C@H]3OC(=O)C(=C)[C@@H]3CC1)=C\CC[C@@]1(C)O[C@@H]21
(A) true (1)

(Q) EC50 under 2000 nM? Item: C=C1C(=O)O[C@@H]2C3O[C@]3(C)CC/C=C(\C)CC[C@@H]12 (stereo not given in full)
(A) false (0)

(Q) EC50 under 2000 nM? Item: C=C1C(=O)O[C@H]2[C@H]1CC/C(COC(=O)NCCCCCCNC(=O)OC/C1=C/CC[C@@]3(C)O[C@H]3[C@H]3OC(=O)C(=C)[C@@H]3CC1)=C\CC[C@@]1(C)O[C@@H]21
(A) true (1)

(Q) EC50 under 2000 nM? Item: C=C1C(=O)O[C@H]2[C@H]1CC/C(COC(=O)NCCCNC(=O)OC/C1=C/CC[C@@]3(C)O[C@H]3[C@H]3OC(=O)C(=C)[C@@H]3CC1)=C\CC[C@@]1(C)O[C@@H]21
(A) false (0)

(Q) EC50 under 2000 nM? Item: C=C1C(=O)O[C@H]2[C@H]1CC/C(COC(=O)NCCCCCCCNC(=O)OC/C1=C/CC[C@@]3(C)O[C@H]3[C@H]3OC(=O)C(=C)[C@@H]3CC1)=C\CC[C@@]1(C)O[C@@H]21
(A) true (1)

(Q) EC50 under 2000 nM? Item: C=C1C(=O)O[C@H]2[C@H]1CC/C(COC(=O)NCCCCCNC(=O)OC/C1=C/CC[C@@]3(C)O[C@H]3[C@H]3OC(=O)C(=C)[C@@H]3CC1)=C\CC[C@@]1(C)O[C@@H]21
(A) true (1)
